- targetSystem: exon 20 T790M mutant-type EGFR enzyme (Homo sapiens, UniProt P00533, T790M)
- Sequence (P00533 25-1210 T790M): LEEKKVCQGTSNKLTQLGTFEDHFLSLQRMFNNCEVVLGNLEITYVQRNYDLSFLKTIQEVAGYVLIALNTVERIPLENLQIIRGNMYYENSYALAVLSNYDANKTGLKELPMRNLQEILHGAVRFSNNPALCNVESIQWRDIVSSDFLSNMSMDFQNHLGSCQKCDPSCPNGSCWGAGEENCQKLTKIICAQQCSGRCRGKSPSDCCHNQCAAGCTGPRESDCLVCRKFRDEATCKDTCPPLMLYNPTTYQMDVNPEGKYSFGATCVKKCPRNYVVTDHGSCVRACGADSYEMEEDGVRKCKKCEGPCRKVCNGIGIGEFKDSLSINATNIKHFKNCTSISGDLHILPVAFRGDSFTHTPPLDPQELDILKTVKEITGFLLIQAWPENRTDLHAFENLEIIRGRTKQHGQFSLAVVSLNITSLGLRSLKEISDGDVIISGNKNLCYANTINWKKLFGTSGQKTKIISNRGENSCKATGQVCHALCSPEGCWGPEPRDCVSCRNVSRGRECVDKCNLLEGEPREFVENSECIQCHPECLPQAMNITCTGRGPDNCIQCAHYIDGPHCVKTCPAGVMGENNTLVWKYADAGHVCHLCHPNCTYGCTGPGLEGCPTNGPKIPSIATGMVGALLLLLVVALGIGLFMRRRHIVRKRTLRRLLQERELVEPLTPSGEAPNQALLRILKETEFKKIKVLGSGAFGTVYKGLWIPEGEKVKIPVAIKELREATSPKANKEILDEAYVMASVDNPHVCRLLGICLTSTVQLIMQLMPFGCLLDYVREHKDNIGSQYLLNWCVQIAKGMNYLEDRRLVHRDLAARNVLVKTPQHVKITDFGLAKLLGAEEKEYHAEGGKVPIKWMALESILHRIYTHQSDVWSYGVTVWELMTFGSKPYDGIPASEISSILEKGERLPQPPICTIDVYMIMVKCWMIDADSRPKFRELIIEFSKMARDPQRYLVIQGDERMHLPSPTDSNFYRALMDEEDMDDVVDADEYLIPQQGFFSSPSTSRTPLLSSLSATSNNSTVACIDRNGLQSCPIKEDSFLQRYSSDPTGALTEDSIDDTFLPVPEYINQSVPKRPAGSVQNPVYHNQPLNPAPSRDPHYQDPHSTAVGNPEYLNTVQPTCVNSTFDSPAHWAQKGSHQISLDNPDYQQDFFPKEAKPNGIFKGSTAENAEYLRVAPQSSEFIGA
- testDetails: Enzymologic experiment of T790M mutant-type EGFR (TR-FRET)
- Assay type: biochemical
- conditions: ratio WT IC50 / T790M IC50, enzyme
valueType: Selectivity of wild-type/mutant-type

- molecule: "C=CC(=O)Nc1cc(Nc2ncc(Cl)c(-n3nc(CC)c4cc(C#N)ccc43)n2)c(OC)cc1N(C)CCN(C)C"
  valueType: "Selectivity of wild-type/mutant-type"
  recordedMeasurement: 39.30
- molecule: "C=CC(=O)Nc1cc(Nc2nccc(-c3cn(C4CC4)c4ccccc34)n2)c(OC)cc1N(C)CCN(C)C"
  valueType: "Selectivity of wild-type/mutant-type"
  recordedMeasurement: 3.9
- molecule: "C=CC(=O)Nc1cc(Nc2nccc(-n3cnc4cc(OC)ccc43)n2)c(OC)cc1N(C)CCN1CCCC1"
  valueType: "Selectivity of wild-type/mutant-type"
  recordedMeasurement: 9.84
- molecule: "C=CC(=O)Nc1cc(Nc2nccc(-n3ncc4cc(OCC)ccc43)n2)c(OC)cc1N(C)CCN1CCCC1"
  valueType: "Selectivity of wild-type/mutant-type"
  recordedMeasurement: 10.86
- molecule: "C=CC(=O)Nc1cc(Nc2nccc(-n3cnc4ccc(C#N)cc43)n2)c(OC)cc1N(C)CCN(C)C"
  valueType: "Selectivity of wild-type/mutant-type"
  recordedMeasurement: 3.18
- molecule: "C=CC(=O)Nc1cc(Nc2nccc(-n3ncc4ccc(OC)cc43)n2)c(OC)cc1N(C)CCN1CCCC1"
  valueType: "Selectivity of wild-type/mutant-type"
  recordedMeasurement: 5.55

Given the molecule C=CC(=O)Nc1cc(Nc2nccc(-n3cnc4ccccc43)n2)c(OC)cc1N(C)CCN(C)C , what is its reported Selectivity of wild-type/mutant-type?
3.49

// Selectivity of wild-type/mutant-type lookup, key: C=CC(=O)Nc1cc(Nc2ncc(C(F)(F)F)c(-n3cnc4ccc(OC)cc43)n2)c(OC)cc1N(C)CCN(C)C
193.03

Item C=CC(=O)Nc1cc(Nc2nccc(-c3cn(C)c4cc(OC)ccc34)n2)c(OC)cc1N(C)CCN(C)C has what recorded Selectivity of wild-type/mutant-type?
19.9
